The entries below come with measured GI50 values attached.
- System: SF-268
- ASSAY_REMARKS: NCI tumour cell line growth inhibition, 48 h
The source made the active and inactive calls. No stated cut-off is given here; in the data, active = GI50 up to about 1.1 µM and inactive = higher.

- CHEMICAL_STRING: "NN/C(=N\\S(=O)(=O)c1cc(Cl)c(Oc2ccc([N+](=O)[O-])cc2Cl)c(Cl)c1)Nc1ccc(Cl)cc1"
  TESTED_SYSTEM: "SF-268"
  GI50: "19.5 µM (inactive)"
- CHEMICAL_STRING: "COC(=O)n1c(=O)n(-c2ccccc2)c(=O)n1C(=O)OC"
  TESTED_SYSTEM: "SF-268"
  GI50: "> 100 µM (inactive)"
- CHEMICAL_STRING: "COC(=O)/C(C#N)=C(/NCCN)Nc1ccccc1"
  TESTED_SYSTEM: "SF-268"
  GI50: "> 100 µM (inactive)"

----------
- Test system: SK-MEL-5
- ASSAY_REMARKS: NCI tumour cell line growth inhibition, 48 h
The source made the active and inactive calls. No stated cut-off is given here; in the data, active = GI50 up to about 1.1 µM and inactive = higher.
Labels: label 1 for active, label 0 for inactive

- MOLECULE: "O=c1cc(CN2CCCCC2)nc2ccc3c(O)cc(CN4CCCCC4)nc3n12"
  DISCRETE_LABEL: "label 0"
- MOLECULE: "COc1ccc(C(O)CNC(=O)c2ccccc2)cc1 (stereo unspecified)"
  DISCRETE_LABEL: "label 0"
- MOLECULE: "CCCC(S(=O)(=O)c1ccccc1)S(=O)(=O)c1ccccc1"
  DISCRETE_LABEL: "label 0"
- MOLECULE: "Cc1n(CC(=O)c2ccc([N+](=O)[O-])cc2)c2c([n+]1CC(C)C)C(=O)c1ccccc1C2=O"
  DISCRETE_LABEL: "label 1"
- MOLECULE: "Cc1ccc(N2Cc3c(ccc4ccccc34)OP2(=S)N2CCCC2)cc1 (stereo unspecified)"
  DISCRETE_LABEL: "label 0"
- MOLECULE: "c1ccc2c(c1)CCN2CCN1CCc2ccccc21"
  DISCRETE_LABEL: "label 0"
- MOLECULE: "COc1cc(/C=C2\\C(=O)N(c3ccccc3)C(c3ccccc3)S2(=O)=O)cc(OC)c1OC (stereo unspecified)"
  DISCRETE_LABEL: "label 0"
- MOLECULE: "COc1cccc(C2C(C(=O)Nc3cc(=O)n(C)c(=O)n3C)=C(C)NC(C)=C2C(=O)Nc2cc(=O)n(C)c(=O)n2C)c1O"
  DISCRETE_LABEL: "label 0"
- MOLECULE: "CCOC(=O)C(=CNc1ccc(N(C2=NCC(C)S2)c2ccc(F)c(Cl)c2)cc1)C(=O)OCC (stereo unspecified)"
  DISCRETE_LABEL: "label 0"
- MOLECULE: "CC(=O)N1CN2C(=O)CCC2c2ccccc21 (stereo unspecified)"
  DISCRETE_LABEL: "label 0"
- MOLECULE: "Cc1cc2nc(C#N)c(N3CCN(c4ccc([N+](=O)[O-])cc4)CC3)nc2cc1C"
  DISCRETE_LABEL: "label 0"
- MOLECULE: "COc1c(C(=O)c2ccc([N+](=O)[O-])cc2)cc(C(C)(C)C)cc1C(C)(C)C"
  DISCRETE_LABEL: "label 0"
- MOLECULE: "CCCCCCCCCCCCNC(=O)NCC(OCC)OCC"
  DISCRETE_LABEL: "label 0"
- MOLECULE: "O=C(COC(=O)c1cccc2c(=O)c3ccccc3[nH]c12)Nc1ccc(Cl)cc1"
  DISCRETE_LABEL: "label 0"
- MOLECULE: "C=C[C@@]1(C)CC2(C=C(CO)C(O)O2)Oc2c1c(=O)oc1cccc(C)c21 (stereo partly specified)"
  DISCRETE_LABEL: "label 0"
- MOLECULE: "CC(C)OC1=C(CC2(C)OCCO2)C(=O)C12OCCO2"
  DISCRETE_LABEL: "label 0"
- MOLECULE: "S=C1Nc2ccccc2SC1c1ccccc1 (stereo unspecified)"
  DISCRETE_LABEL: "label 0"
- MOLECULE: "CN(C)c1ncc(-c2c[nH]c3ccccc23)nc1-c1c[nH]c2ccccc12"
  DISCRETE_LABEL: "label 0"
- MOLECULE: "O=[N+]([O-])c1nccn1CCCNCCCn1ccnc1[N+](=O)[O-]"
  DISCRETE_LABEL: "label 0"
- MOLECULE: "COc1cc2c(c(OC)c1OC)-c1ccc(SC)cc1[C@H](OC(=O)c1ccccc1)CC2"
  DISCRETE_LABEL: "label 1"
- MOLECULE: "CCCCC1(C)C=C/C(=C2/C(=O)O/C(=C\\C(=O)O)C2=O)O1 (stereo unspecified)"
  DISCRETE_LABEL: "label 0"
